METHOD: solvent given as SMILES
CONDITION_PARAMETERS: in CC#N
ASSAY_ENDPOINT: emission maximum

Kindly give each listed record's emission maximum.
1. NS(=O)(=O)c1ccc(N2N=C(c3ccc(O)cc3)CC2c2ccc(F)cc2)cc1 (configuration not stated)
2. O=CN1N=C(c2ccc(Br)cc2)C[C@@H]1c1ccccc1
3. COc1ccc(-c2csc(/C(C#N)=C/c3ccc(Cl)cc3)n2)cc1
4. O=C(O)c1ccccc1Nc1ccccc1
5. COC(=O)c1c2ccccc2nc2ccccc12
6. CC(=O)c1ccc2ccc3cccc4ccc1c2c34

Reply:
1: 417 nm; 2: 351 nm; 3: 543 nm; 4: 398 nm; 5: 422 nm; 6: 390 nm

Ask: Param item = `CN(C)c1ccc(C2=Cc3cc(Cl)nc[n+]3[B-](F)(F)O2)cc1` ; retrieve measured emission maximum.
Reply: 565 nm

====

For each record, write down the corresponding emission maximum.
METHOD: solvent given as SMILES
CONDITION_PARAMETERS: in C1COCCO1
Numbers only, in nm.

Solved entries:
CCCCCCCCC1(CCCCCCCC)c2cc(C#CC#Cc3ccc(N(c4ccccc4)c4ccccc4)cc3)ccc2-c2ccc(C=O)cc21: 448
CN(C)c1ccc(/C=C/C=C/C2=NC3C(=O)NC(N)=NC3N2[C@H]2C[C@H](O)[C@@H](CO)O2)cc1 (stereo partly specified): 429
CCCCCCN(c1ccccc1)c1ccc2c(c1)C(CC)(CC)c1cc(/C=C/c3ccc(/C=C(\C#N)C(=O)O)s3)ccc1-2: 620
Nc1ccc(C#Cc2ccc3ccc4ccc(C#Cc5ccc(N)cc5)c5ccc2c3c45)cc1: 476
Oc1ccc(/N=C/c2ccccc2Oc2ccccc2)cc1: 414

Kindly give each listed record's emission maximum.
1. CN(C)c1ccc(C#Cc2ccc3ccc4ccc(C#Cc5ccc(N(C)C)cc5)c5ccc2c3c45)cc1
2. Cc1ccc(C2=C3C=CC(C#Cc4ccccc4)=[N+]3[B-](F)(F)n3c(Cl)ccc32)cc1
3. CN(C)c1c2ccccc2cc2ccccc12
4. CC(C)(C)c1ccc(-c2nc3c4ccc(-c5cc6ccccc6c6ccccc56)cc4c4cc(-c5cc6ccccc6c6ccccc56)ccc4c3n2-c2ccc(C(C)(C)C)cc2)cc1
5. O=C(O)c1ccccc1Nc1ccccc1
6. CN(C)c1ccc(C#Cc2ccc(C#N)cc2)cc1

Reply:
1. 491.8
2. 575
3. 392
4. 386
5. 432
6. 446.01

====

METHOD: solvent given as SMILES
CONDITION_PARAMETERS: in Cc1ccccc1
Assign y to entries whose emission maximum meets or exceeds 500 nm; assign n to the rest.

Cc1cc(C)c(B(c2ccc(C#Cc3cc4ccc5cc(C#Cc6ccc(B(c7c(C)cc(C)cc7C)c7c(C)cc(C)cc7C)cc6)cc6ccc(c3)c4c56)cc2)c2c(C)cc(C)cc2C)c(C)c1: n
Cc1ccccc1[B-]1(c2ccccc2C)n2nc(C(F)(F)F)cc2-c2c3ccccc3cc[n+]21: n
F[B-]1(F)n2cccc2C(c2ccccc2)=C2C=CC=[N+]21: y

Ask: Kindly determine if emission maximum recorded for `CC1(C)c2ccccc2N(c2ccc(C(=C(C#N)C#N)c3ccc(N4c5ccccc5C(C)(C)c5ccccc54)cc3)cc2)c2ccccc21` is above or exactly 500 nm.
Reply: y

Ask: Kindly determine if emission maximum recorded for `c1ccc(-c2nc(-c3ccccc3)nc(-c3ccc(-n4c5ccc(-n6c7ccccc7c7ccccc76)cc5c5ccc6c(c7ccccc7n6-c6ccccc6)c54)cc3)n2)cc1` is above or exactly 500 nm.
Reply: n

Ask: Kindly determine if emission maximum recorded for `N#Cc1c(-n2c3ccccc3c3ccccc32)c(F)c(-n2c3ccccc3c3ccccc32)c(-n2c3ccccc3c3ccccc32)c1-n1c2ccccc2c2ccccc21` is above or exactly 500 nm.
Reply: n
